test system: IGROV-1; test: NCI tumour cell line growth inhibition, 48 h
Active and inactive are the calls of the source. No stated cut-off is given here; in the data, active = GI50 up to about 1.1 µM and inactive = higher.
Outcome codes: active, inactive

INSERT INTO results (compound, discrete_label) VALUES
  ('CCOC(=O)c1nc2ccccc2nc1NCc1ccc(OC)c(OC)c1', 'inactive'),
  ('COc1ccc2c(c1)C(=O)c1ccc(OC)cc1C2=S', 'inactive'),
  ('Cc1cccc(C)c1NC(=S)N/C=C(\C#N)C(N)=O', 'inactive'),
  ('CCO[C@@]12CCC3CC4CC[C@@](OCC)(O1)C4C32 (stereo partly specified)', 'inactive'),
  ('COC(=O)c1ccc2c(c1)S/C(=C/c1ccc3ccc4cccc5ccc1c3c45)S2', 'inactive'),
  ('O=[N+]([O-])C1=Cc2c(O)ccc(O)c2C2c3ccccc3NC12 (stereo unspecified)', 'inactive'),
  ('C[C@]12CC[C@H]3[C@@H](CCC4=CC(=O)CC[C@@]43C)[C@]1(O)CC[C@]2(O)C(=O)CO', 'inactive'),
  ('COC(=O)C1=C(C(=O)OC)SC(=C2c3ccsc3-c3sccc32)S1', 'inactive'),
  ('COc1ccccc1NC(=O)/C(Cc1nc2ccc([N+](=O)[O-])cc2nc1O)=N\NC(=O)C[N+](C)(C)C', 'inactive'),
  ('CO[C@]12CCC(=O)N1C=Cc1c2[nH]c2ccccc12', 'inactive'),
  ('COc1cc2c(c(OC)c1OC)-c1ccc(OC)c(=O)cc1C(NC(=O)CCCCCNc1ccc(N=[N+]=[N-])cc1[N+](=O)[O-])CC2 (stereo unspecified)', 'active');
